- Assayed target: human constitutive 20S proteasome cCP, PA activity (β1) (Homo sapiens)
- Procedure details: Inhibition of PA activity of human cCP (substrate Z-LLE-βNA)
- Condition set: pH 8, read-out: % inhibition at 50 μM PA, cCP
Metric: inhibition at 50 µM

> print(dat)
                                   molecule  result
1  COc1ccc(S(=O)(=O)N2CCN(c3ccc([N+](=O)[O-])c(NCC(C)(C)C)c3)CC2)cc1OC   < 25%

Recorded inhibition at 50 µM (compound "CC(C)(C)c1ccc(S(=O)(=O)N2CCN(c3ccc(Cl)cc3[N+](=O)[O-])CC2)cc1" ): < 25%

Recorded inhibition at 50 µM (compound "CC(C)Cc1ccc(S(=O)(=O)N2CCN(c3ccc([N+](=O)[O-])cc3)CC2)cc1" ): < 25%

Recorded inhibition at 50 µM (compound "O=[N+]([O-])c1ccc(N2CCN(S(=O)(=O)c3ccc(Cl)cc3)CC2)cc1Sc1ccccn1" ): 46%

Recorded inhibition at 50 µM (compound "O=[N+]([O-])c1ccc(N2CCN(S(=O)(=O)c3ccc4ccccc4c3)CC2)cc1" ): 50%

Recorded inhibition at 50 µM (compound "O=[N+]([O-])c1ccc(N2CCN(S(=O)(=O)Cc3ccccc3)CC2)cc1NCCN1CCOCC1" ): < 25%

Recorded inhibition at 50 µM (compound "Cc1ccccc1N1CCN(S(=O)(=O)c2ccc(C(C)(C)C)cc2)CC1" ): < 25%

Recorded inhibition at 50 µM (compound "CC(=O)Nc1ccc(S(=O)(=O)N2CCN(c3ccc([N+](=O)[O-])c(NCCN4CCOCC4)c3)CC2)cc1" ): 45%

----------
Recorded below: IC50, system human 20S immunoproteasome iCP, PA activity (β1) (Homo sapiens).
Numbers only; they are read as µM.

Some compounds with known IC50 results, for comparison:
> print(dat)
                                   molecule  metric  quantitative.result
1  O=[N+]([O-])c1ccc(N2CCN(S(=O)(=O)c3ccc(Cl)cc3)CC2)cc1SCc1ccco1    IC50                  3.7
2  O=C(COc1ccc2ccccc2c1)N1CCN(S(=O)(=O)c2ccc([N+](=O)[O-])cc2)CC1    IC50                  7.1

Observed IC50, human 20S immunoproteasome iCP, PA activity (β1) (Homo sapiens), "Cc1ccc(S(=O)(=O)N2CCN(c3ccc([N+](=O)[O-])c(SCc4ccco4)c3)CC2)cc1" : 3.3

----------
- Assayed target: human constitutive 20S proteasome cCP, T-L activity (β2) (Homo sapiens)
- Procedure details: Inhibition of T-L activity of human cCP (substrate Boc-LRR-AMC)
- Condition set: pH 8, read-out: % inhibition at 50 μM T-L, cCP
Metric: inhibition at 50 µM

Some molecules with known inhibition at 50 µM results, for comparison:
> print(dat)
                                   molecule  result
1  O=[N+]([O-])c1ccc(N2CCN(S(=O)(=O)c3ccc(Cl)cc3)CC2)cc1SCc1ccco1   < 25%
2  CC(C)(C)c1ccc(S(=O)(=O)N2CCN(c3ccc([N+](=O)[O-])c(NCc4ccccn4)c3)CC2)cc1   < 25%

Recorded inhibition at 50 µM (molecule "COc1ccc(S(=O)(=O)N2CCN(c3ccc([N+](=O)[O-])c(NCC(C)(C)C)c3)CC2)cc1OC" ): < 25%

Cited source for all entries: paper PMC5354670
